TESTED_SYSTEM: UniProtKB P15121
METHOD_NOTES: inhibition of human aldose reductase (hALR2), methods similar to Butera et al.
Assay type: biochemical
EXPERIMENTAL_CONTEXT: concentration required to inhibit human aldose reductase activity by 50%
Reported pIC50 by item:
pIC50 field: float, defined as -log10 of concentration (mol/L).

Input: Quick check: pIC50 of O=C(O)COc1cc(F)ccc1C(=O)NCc1nc2cc(C(F)(F)F)ccc2s1 ?
Output: 7.54

Input: Find the recorded pIC50 belonging to O=C(O)COc1ccc(OC(F)(F)F)cc1C(=O)NCc1cccc([N+](=O)[O-])c1 and report it.
Output: 8.05

Input: May I ask what pIC50 has been recorded for O=C(O)COc1cc(Cl)ccc1C(=O)NCc1ccc(Br)cc1F ?
Output: 7.52

Input: Entry Cc1ccc(CNC(=O)c2ccc(F)cc2OCC(=O)O)cc1[N+](=O)[O-] has what pIC50?
Output: 8.10

Input: Could you share which pIC50 value was measured for O=C(O)COc1cc(F)c(F)cc1C(=S)NCc1ccc(Br)cc1F ?
Output: 7.48

Input: Returns the measured pIC50 for the input molecule. Input: Cc1cc(C(=S)NCc2cccc([N+](=O)[O-])c2)c(OCC(=O)O)cc1F
Output: 8.15

Input: Give its pIC50 value. Item: O=C(O)COc1cc(F)c(N2CCOCC2)cc1C(=O)NCc1cccc([N+](=O)[O-])c1
Output: 8.15

Input: Requested read-out: pIC50. Entry: O=C(O)COc1ccc(Br)cc1C(=S)NCc1ccc(Br)cc1F
Output: 7.43

Others:
Input: Would you mind telling me what pIC50 value was observed for Cc1cc(C(=O)NCc2ccc(Br)cc2F)c(OCC(=O)O)cc1F ?
Output: 7.62

* * *

TESTED_SYSTEM: human aldose reductase (hALR2) (Homo sapiens)
METHOD_NOTES: inhibition of human aldose reductase (hALR2), methods similar to Butera et al.
Format: biochemical
MEASUREMENT_TYPE: IC50 (nM)
All answers are understood in nM, so give the number only.

Input: Param readout= IC50; system= human aldose reductase (hALR2) (Homo sapiens); entry= O=C(O)COc1cc(Cl)ccc1C(=O)NCc1cccc([N+](=O)[O-])c1 [Example 5] ; returns value.
Output: 6

* * *

TESTED_SYSTEM: human aldehyde reductase (hALR1) (Homo sapiens)
Sequence (P14550 whole entry): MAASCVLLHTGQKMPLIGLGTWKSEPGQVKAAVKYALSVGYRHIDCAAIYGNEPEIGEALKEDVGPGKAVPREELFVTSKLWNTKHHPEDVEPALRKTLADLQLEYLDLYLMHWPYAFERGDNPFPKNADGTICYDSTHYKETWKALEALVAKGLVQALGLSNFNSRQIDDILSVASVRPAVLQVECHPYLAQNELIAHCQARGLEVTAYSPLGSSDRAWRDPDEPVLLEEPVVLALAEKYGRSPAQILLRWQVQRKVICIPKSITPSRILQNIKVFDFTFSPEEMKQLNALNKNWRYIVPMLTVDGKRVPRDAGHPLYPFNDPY
METHOD_NOTES: inhibition of human aldehyde reductase (hALR1), methods essentially of Ishii et al.
Format: biochemical
EXPERIMENTAL_CONTEXT: concentration required to inhibit human aldehyde reductase activity by 50%
Recorded IC50 values for a group of molecules are listed next.
Response body: numeric value in µM, unit text excluded.

Input: What value of measured IC50 is listed for O=C(O)COc1cc(F)ccc1C(=O)NCc1ccc(Br)cc1F [Example 28] ?
Output: 6.6

Input: Name the recorded IC50 for O=C(O)COc1cc(F)ccc1C(=O)NCc1nc2c(F)c(F)cc(F)c2s1 [Example 54] .
Output: 22

Input: IC50 for O=C(O)COc1cc(F)ccc1C(=O)NCc1nc2cc(C(F)(F)F)ccc2s1 [Example 56] ?
Output: 22

Input: Suppose we examine the molecule O=C(O)COc1cc(F)c(Br)cc1C(=O)NCc1cccc([N+](=O)[O-])c1 [Example 49] ; what IC50 value has been reported?
Output: 44

Input: Item under review: O=C(O)COc1cc(F)ccc1C(=S)NCc1nc2c(F)c(F)cc(F)c2s1 [Example 55] . Reported IC50?
Output: 17

Further cases:
Input: Recorded IC50 for O=C(O)COc1cc(Cl)ccc1C(=O)NCc1ccc(Br)cc1F [Example 1] , please?
Output: 14

Input: Consider the molecule shown here: O=C(O)COc1ccc(Cl)cc1C(=O)NCc1ccc(Br)cc1F [Example 17] What is its recorded IC50?
Output: 18

Input: Item O=C(O)COc1cc(F)ccc1C(=S)NCc1ccc(Br)cc1F [Example 33] has what recorded IC50?
Output: 33

Input: Reported IC50 for O=C(O)COc1cc(F)c(-c2ccccc2)cc1C(=O)NCc1cccc([N+](=O)[O-])c1 [Example 50] : what is it?
Output: 14
